In this section we review reported relative viability values for a set of compounds.
# Tested on: NCI-H650
# PROCEDURE_SUMMARY: relative viability (nuclei count vs DMSO), 5 days (fraction); higher = more cells survive
# CONDITION_SUMMARY: first compound 0.000632 µM
Respond with the number and no other words.

Q. Would you mind telling me what relative viability value was observed for CC(=O)O[C@@]12CO[C@@H]1C[C@H](O)[C@@]1(C)C(=O)[C@H](O)C3=C(C)[C@@H](OC(=O)[C@H](O)[C@@H](NC(=O)OC(C)(C)C)c4ccccc4)C[C@@](O)([C@@H](OC(=O)c4ccccc4)[C@H]21)C3(C)C [Docetaxel] + CS(=O)(=O)CCNCc1ccc(-c2ccc3ncnc(Nc4ccc(OCc5cccc(F)c5)c(Cl)c4)c3c2)o1 [Lapatinib] (partner 2 µM) ?
A. 0.384

Q. Would you mind telling me what relative viability value was observed for CC(=O)O[C@@]12CO[C@@H]1C[C@H](O)[C@@]1(C)C(=O)[C@H](O)C3=C(C)[C@@H](OC(=O)[C@H](O)[C@@H](NC(=O)OC(C)(C)C)c4ccccc4)C[C@@](O)([C@@H](OC(=O)c4ccccc4)[C@H]21)C3(C)C [Docetaxel] + COc1cccc2cc(-c3nc([C@H]4CC[C@H](C(=O)O)CC4)n4ncnc(N)c34)[nH]c12 [OSI-027] (partner 0.5 µM) ?
A. 0.375

Q. Would you mind telling me what relative viability value was observed for CC(=O)O[C@@]12CO[C@@H]1C[C@H](O)[C@@]1(C)C(=O)[C@H](O)C3=C(C)[C@@H](OC(=O)[C@H](O)[C@@H](NC(=O)OC(C)(C)C)c4ccccc4)C[C@@](O)([C@@H](OC(=O)c4ccccc4)[C@H]21)C3(C)C [Docetaxel] + CCNC(=O)c1noc(-c2cc(C(C)C)c(O)cc2O)c1-c1ccc(CN2CCOCC2)cc1 [Luminespib] (partner 0.01 µM) ?
A. 0.519

Q. Would you mind telling me what relative viability value was observed for CC(=O)O[C@@]12CO[C@@H]1C[C@H](O)[C@@]1(C)C(=O)[C@H](O)C3=C(C)[C@@H](OC(=O)[C@H](O)[C@@H](NC(=O)OC(C)(C)C)c4ccccc4)C[C@@](O)([C@@H](OC(=O)c4ccccc4)[C@H]21)C3(C)C [Docetaxel] + Cc1cc(Nc2cc(N3CCN(C)CC3)nc(Sc3ccc(NC(=O)C4CC4)cc3)n2)n[nH]1 [Tozasertib] (partner 0.1 µM) ?
A. 0.381

Q. Would you mind telling me what relative viability value was observed for CC(=O)O[C@@]12CO[C@@H]1C[C@H](O)[C@@]1(C)C(=O)[C@H](O)C3=C(C)[C@@H](OC(=O)[C@H](O)[C@@H](NC(=O)OC(C)(C)C)c4ccccc4)C[C@@](O)([C@@H](OC(=O)c4ccccc4)[C@H]21)C3(C)C [Docetaxel] + NC(=O)Nc1cc(-c2cccc(F)c2)sc1C(=O)N[C@H]1CCCNC1 [AZD7762] (partner 0.2 µM) ?
A. 0.485

Here's the next entry for you.
Q. Would you mind telling me what relative viability value was observed for CC(=O)O[C@@]12CO[C@@H]1C[C@H](O)[C@@]1(C)C(=O)[C@H](O)C3=C(C)[C@@H](OC(=O)[C@H](O)[C@@H](NC(=O)OC(C)(C)C)c4ccccc4)C[C@@](O)([C@@H](OC(=O)c4ccccc4)[C@H]21)C3(C)C [Docetaxel] + N=C(N)NC(=N)NCCc1ccccc1 [Phenformin] (partner 250 µM) ?
A. 0.397

----------
# Tested on: ABC-1
# PROCEDURE_SUMMARY: relative viability (nuclei count vs DMSO), 5 days (fraction); higher = more cells survive
# CONDITION_SUMMARY: first compound 0.000632 µM
ENDPOINT_NAME: relative viability
Respond with the number and no other words.

Some solved cases for reference:
Q. Would you mind telling me what relative viability value was observed for CC(=O)O[C@@]12CO[C@@H]1C[C@H](O)[C@@]1(C)C(=O)[C@H](O)C3=C(C)[C@@H](OC(=O)[C@H](O)[C@@H](NC(=O)OC(C)(C)C)c4ccccc4)C[C@@](O)([C@@H](OC(=O)c4ccccc4)[C@H]21)C3(C)C [Docetaxel] + CS(=O)(=O)N1CCN(Cc2cc3nc(-c4cccc5[nH]ncc45)nc(N4CCOCC4)c3s2)CC1 [Pictilisib] (partner 1 µM) ?
A. 0.685

Q. Would you mind telling me what relative viability value was observed for CC(=O)O[C@@]12CO[C@@H]1C[C@H](O)[C@@]1(C)C(=O)[C@H](O)C3=C(C)[C@@H](OC(=O)[C@H](O)[C@@H](NC(=O)OC(C)(C)C)c4ccccc4)C[C@@](O)([C@@H](OC(=O)c4ccccc4)[C@H]21)C3(C)C [Docetaxel] + O=C(CCCCCCC(=O)Nc1ccccc1)NO [Vorinostat] (partner 1 µM) ?
A. 0.884

Here's the next entry for you.
Q. Would you mind telling me what relative viability value was observed for CC(=O)O[C@@]12CO[C@@H]1C[C@H](O)[C@@]1(C)C(=O)[C@H](O)C3=C(C)[C@@H](OC(=O)[C@H](O)[C@@H](NC(=O)OC(C)(C)C)c4ccccc4)C[C@@](O)([C@@H](OC(=O)c4ccccc4)[C@H]21)C3(C)C [Docetaxel] + CCNC(=O)c1noc(-c2cc(C(C)C)c(O)cc2O)c1-c1ccc(CN2CCOCC2)cc1 [Luminespib] (partner 0.01 µM) ?
A. 0.704

----------
# Tested on: LU99A
# PROCEDURE_SUMMARY: relative viability (nuclei count vs DMSO), 5 days (fraction); higher = more cells survive
# CONDITION_SUMMARY: first compound 0.5 µM
ENDPOINT_NAME: relative viability

Some solved cases for reference:
Q. Reported relative viability for LU99A, given Nc1ccn([C@@H]2O[C@H](CO)[C@@H](O)[C@@H]2O)c(=O)n1 [Cytarabine] + Cc1cc(Nc2cc(N3CCN(C)CC3)nc(Sc3ccc(NC(=O)C4CC4)cc3)n2)n[nH]1 [Tozasertib] (partner 0.1 µM) ?
A. 0.281

Q. Reported relative viability for LU99A, given COc1cc2nccc(Oc3ccc(NC(=O)Nc4cc(C)on4)c(Cl)c3)c2cc1OC [Tivozanib] + C[C@]1(O)C[C@@H](c2nc(-c3ccc4ccc(-c5ccccc5)nc4c3)c3c(N)nccn32)C1 [Linsitinib] (partner 1 µM) ?
A. 0.534

Q. Reported relative viability for LU99A, given COc1cc2nccc(Oc3ccc(NC(=O)Nc4cc(C)on4)c(Cl)c3)c2cc1OC [Tivozanib] + CC1(C)CCC(c2ccc(Cl)cc2)=C(CN2CCN(c3ccc(C(=O)NS(=O)(=O)c4ccc(N[C@H](CCN5CCOCC5)CSc5ccccc5)c(S(=O)(=O)C(F)(F)F)c4)cc3)CC2)C1 [Navitoclax] (partner 0.5 µM) ?
A. 0.794

Q. Reported relative viability for LU99A, given COc1cc2nccc(Oc3ccc(NC(=O)Nc4cc(C)on4)c(Cl)c3)c2cc1OC [Tivozanib] + C[C@@H](Oc1cc(-c2cnn(C3CCNCC3)c2)cnc1N)c1c(Cl)ccc(F)c1Cl [Crizotinib] (partner 1 µM) ?
A. 0.482

Q. Reported relative viability for LU99A, given Nc1ccn([C@@H]2O[C@H](CO)[C@@H](O)[C@@H]2O)c(=O)n1 [Cytarabine] + O=C(c1cc(Cc2n[nH]c(=O)c3ccccc23)ccc1F)N1CCN(C(=O)C2CC2)CC1 [Olaparib] (partner 8 µM) ?
A. 0.241

---
Q. Reported relative viability for LU99A, given Nc1ccn([C@@H]2O[C@H](CO)[C@@H](O)[C@@H]2O)c(=O)n1 [Cytarabine] + CS(=O)(=O)CCNCc1ccc(-c2ccc3ncnc(Nc4ccc(OCc5cccc(F)c5)c(Cl)c4)c3c2)o1 [Lapatinib] (partner 2 µM) ?
A. 0.938

Q. Reported relative viability for LU99A, given COc1cc2nccc(Oc3ccc(NC(=O)Nc4cc(C)on4)c(Cl)c3)c2cc1OC [Tivozanib] + COc1cccc2cc(-c3nc([C@H]4CC[C@H](C(=O)O)CC4)n4ncnc(N)c34)[nH]c12 [OSI-027] (partner 0.5 µM) ?
A. 0.238

----------
In this section we review reported relative viability values for a set of compounds.
# Tested on: H3255
# PROCEDURE_SUMMARY: relative viability (nuclei count vs DMSO), 5 days (fraction); higher = more cells survive
# CONDITION_SUMMARY: first compound 0.04 µM

Some solved cases for reference:
Q. Would you mind telling me what relative viability value was observed for Cc1sc2c(c1C)C(c1ccc(Cl)cc1)=N[C@@H](CC(=O)OC(C)(C)C)c1nnc(C)n1-2 [JQ1] + Cc1cc(Nc2cc(N3CCN(C)CC3)nc(Sc3ccc(NC(=O)C4CC4)cc3)n2)n[nH]1 [Tozasertib] (partner 0.1 µM) ?
A. 0.65

Q. Would you mind telling me what relative viability value was observed for Cc1sc2c(c1C)C(c1ccc(Cl)cc1)=N[C@@H](CC(=O)OC(C)(C)C)c1nnc(C)n1-2 [JQ1] + CC(=O)Nc1cccc(-n2c(=O)n(C3CC3)c(=O)c3c(Nc4ccc(I)cc4F)n(C)c(=O)c(C)c32)c1 [Trametinib] (partner 0.02 µM) ?
A. 0.58

Q. Would you mind telling me what relative viability value was observed for Cc1sc2c(c1C)C(c1ccc(Cl)cc1)=N[C@@H](CC(=O)OC(C)(C)C)c1nnc(C)n1-2 [JQ1] + O=C(c1cc(Cc2n[nH]c(=O)c3ccccc23)ccc1F)N1CCN(C(=O)C2CC2)CC1 [Olaparib] (partner 8 µM) ?
A. 0.528

---
Q. Would you mind telling me what relative viability value was observed for Cc1sc2c(c1C)C(c1ccc(Cl)cc1)=N[C@@H](CC(=O)OC(C)(C)C)c1nnc(C)n1-2 [JQ1] + N=C(N)NC(=N)NCCc1ccccc1 [Phenformin] (partner 250 µM) ?
A. 0.349
